switch fluorescence ratio: recorded values
Test system: ATP;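 further: ATP exposure 15 min at 22 °C before imaging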
Assay: switch fluorescence ratio, 500 uM ATP over buffer (Cy3 cluster intensity, sum of 5 cycles each) (fold (ratio)); higher = stronger signal-on switching upon ATP binding; sequences stand for … in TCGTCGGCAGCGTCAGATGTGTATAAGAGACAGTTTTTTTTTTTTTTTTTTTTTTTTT…TC
Details: aptamer strand: ATP DNA aptamer (quencher-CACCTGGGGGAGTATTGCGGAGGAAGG + anchor), 100 nM annealed; ATP concentration: 500 uM
Answer field: number only, no words.

Solved cases below.
sequence-text | switch fluorescence ratio
GCGGTAACCA | 0.992
GGTGGGGTTG | 1
AGGTGTAAAT | 1
TGGGCTGGTA | 0.972
GATTCATCTA | 0.983

What does the record list as switch fluorescence ratio for `TGTGTTCACA` ? 0.98

What does the record list as switch fluorescence ratio for `TGCTGTAATA` ? 1.03

What does the record list as switch fluorescence ratio for `CTCTTTGCGA` ? 1.4

What does the record list as switch fluorescence ratio for `ACTGATTTTT` ? 1.02

What does the record list as switch fluorescence ratio for `CGGGTTATGT` ? 0.992

What does the record list as switch fluorescence ratio for `CTGGGCAGGT` ? 1

###

System: ATP;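 further: ATP exposure 15 min at 22 °C before imaging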
Experiment: switch fluorescence ratio, 500 uM ATP over buffer (Cy3 cluster intensity, sum of 5 cycles each) (fold (ratio)); higher = stronger signal-on switching upon ATP binding; sequences stand for … in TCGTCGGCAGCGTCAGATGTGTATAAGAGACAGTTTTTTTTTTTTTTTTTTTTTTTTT…TC
Settings: aptamer strand: ATP DNA aptamer (quencher-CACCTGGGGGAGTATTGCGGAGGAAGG + anchor), 100 nM annealed; ATP concentration: 500 uM
Criterion: switch fluorescence ratio meeting or surpassing 1. Met: criterion met. Not met: criterion not met.

Example entries and their recorded answers appear below.
sequence-text | subject-of-test | class-label
CGGGGGGACA | ATP | criterion not met
GCGAGGGTGT | ATP | criterion met
TTTGACAGTA | ATP | criterion met

Consider the additional sequence presented here.
Could you tell me if the measured switch fluorescence ratio of `AATTGCTACC` reaches 1 or more? criterion met

###

Test system: ATP;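 further: ATP exposure 15 min at 22 °C before imaging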
Assay: switch fluorescence ratio, 500 uM ATP over buffer (Cy3 cluster intensity, sum of 5 cycles each) (fold (ratio)); higher = stronger signal-on switching upon ATP binding; sequences stand for … in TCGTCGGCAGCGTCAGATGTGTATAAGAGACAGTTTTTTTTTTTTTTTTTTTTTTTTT…TC
Conditions: aptamer strand: ATP DNA aptamer (quencher-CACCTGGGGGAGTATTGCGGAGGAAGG + anchor), 100 nM annealed; ATP concentration: 500 uM
value-kind: switch fluorescence ratio
Answer field: number only, no words.

Solved cases below.
sequence-text | number
TCCCGATTGG | 0.959
TGAGGGTACA | 0.984
TGTTTGTCA | 0.989
TAAGCGAGTG | 0.983
GCTCCTGACT | 1.15

What reported switch fluorescence ratio corresponds to `CAGGTCATGC` on ATP? 1.02

What reported switch fluorescence ratio corresponds to `AGGCCTAACG` on ATP? 0.995

What reported switch fluorescence ratio corresponds to `AGTAGCTTTT` on ATP? 0.997

What reported switch fluorescence ratio corresponds to `TACTGGGGCT` on ATP? 1.04

###

System: ATP;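 further: ATP exposure 15 min at 22 °C before imaging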
Assay: switch fluorescence ratio, 500 uM ATP over buffer (Cy3 cluster intensity, sum of 5 cycles each) (fold (ratio)); higher = stronger signal-on switching upon ATP binding; sequences stand for … in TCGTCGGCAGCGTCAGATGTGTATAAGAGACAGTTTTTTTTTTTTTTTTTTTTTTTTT…TC
Conditions: aptamer strand: ATP DNA aptamer (quencher-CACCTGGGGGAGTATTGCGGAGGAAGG + anchor), 100 nM annealed; ATP concentration: 500 uM
switch fluorescence ratio: recorded values
Answer field: number only, no words.

Solved cases below.
sequence-text | switch fluorescence ratio
TGGTTTGAGG | 0.989
ATGGTCAGGC | 0.973
ACGGCTAAGG | 1.06

What does the record list as switch fluorescence ratio for `AAGAGATATA` ? 1.01

What does the record list as switch fluorescence ratio for `TATAGGGGTT` ? 1.02

###

Tested on: ATP;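 further: ATP exposure 15 min at 22 °C before imaging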
Test: switch fluorescence ratio, 500 uM ATP over buffer (Cy3 cluster intensity, sum of 5 cycles each) (fold (ratio)); higher = stronger signal-on switching upon ATP binding; sequences stand for … in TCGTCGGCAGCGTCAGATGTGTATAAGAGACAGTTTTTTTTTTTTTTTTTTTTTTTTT…TC
Conditions: aptamer strand: ATP DNA aptamer (quencher-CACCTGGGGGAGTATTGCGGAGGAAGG + anchor), 100 nM annealed; ATP concentration: 500 uM
switch fluorescence ratio: recorded values
Answer field: number only, no words.

Solved cases below.
sequence-text | subject-of-test | switch fluorescence ratio
TCTAACATGC | ATP | 1.15
TGTGGGTGAG | ATP | 1
ACAATCGGAA | ATP | 1.02

What does the record list as switch fluorescence ratio for `AGTAAAATT` ? 0.987

What does the record list as switch fluorescence ratio for `TTAAAAATCG` ? 1.02

What does the record list as switch fluorescence ratio for `ACTTTTGGCG` ? 1

What does the record list as switch fluorescence ratio for `TACATGATGG` ? 1

What does the record list as switch fluorescence ratio for `ACGCTTTTGG` ? 1.03

What does the record list as switch fluorescence ratio for `CTGTATGGGT` ? 0.998

###

switch fluorescence ratio: recorded values
Test system: ATP;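 further: ATP exposure 15 min at 22 °C before imaging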
Assay: switch fluorescence ratio, 500 uM ATP over buffer (Cy3 cluster intensity, sum of 5 cycles each) (fold (ratio)); higher = stronger signal-on switching upon ATP binding; sequences stand for … in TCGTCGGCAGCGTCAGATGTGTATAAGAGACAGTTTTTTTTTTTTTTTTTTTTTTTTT…TC
Settings: aptamer strand: ATP DNA aptamer (quencher-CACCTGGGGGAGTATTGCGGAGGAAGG + anchor), 100 nM annealed; ATP concentration: 500 uM
Answer field: number only, no words.

Solved cases below.
sequence-text | switch fluorescence ratio
TTATTATTGG | 0.986
TTTCCATTAT | 1.01
TATAAGGCGC | 0.949

Now for the sequence whose switch fluorescence ratio we want.
What does the record list as switch fluorescence ratio for `TTCCAAGGGT` ? 1.76

###

Test system: ATP;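 further: ATP exposure 15 min at 22 °C before imaging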
Assay: switch fluorescence ratio, 500 uM ATP over buffer (Cy3 cluster intensity, sum of 5 cycles each) (fold (ratio)); higher = stronger signal-on switching upon ATP binding; sequences stand for … in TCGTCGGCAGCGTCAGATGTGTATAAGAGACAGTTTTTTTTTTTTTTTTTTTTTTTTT…TC
Details: aptamer strand: ATP DNA aptamer (quencher-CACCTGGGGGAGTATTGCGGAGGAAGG + anchor), 100 nM annealed; ATP concentration: 500 uM
value-kind: switch fluorescence ratio
Answer field: number only, no words.

Solved cases below.
sequence-text | switch fluorescence ratio
TTAATATTTT | 0.985
TTAGGAGATT | 1.08
GGGGATATTT | 1

What does the record list as switch fluorescence ratio for `GGGGCGGGTG` ? 0.993

What does the record list as switch fluorescence ratio for `TTAGTTTTAG` ? 1.01

What does the record list as switch fluorescence ratio for `ACAGGAGAAA` ? 1.01

What does the record list as switch fluorescence ratio for `TTTTTAGGGC` ? 1.02

What does the record list as switch fluorescence ratio for `ATTGTAGAGT` ? 0.985

What does the record list as switch fluorescence ratio for `GCTGCACGGG` ? 1.01

What does the record list as switch fluorescence ratio for `ATTTAGTCAG` ? 0.974

What does the record list as switch fluorescence ratio for `CGGAGGCGTT` ? 0.986

What does the record list as switch fluorescence ratio for `AGCAAGGGGA` ? 1.07

What does the record list as switch fluorescence ratio for `GGGGGGGTTC` ? 1

What does the record list as switch fluorescence ratio for `TATGAGGTAA` ? 1.02

What does the record list as switch fluorescence ratio for `TGTAATACGT` ? 1.17

What does the record list as switch fluorescence ratio for `CGGGTAATTT` ? 1.03

What does the record list as switch fluorescence ratio for `GTGTAAGTA` ? 0.97

What does the record list as switch fluorescence ratio for `ATCGAAATGG` ? 1

What does the record list as switch fluorescence ratio for `AGAGTTATGT` ? 1.02

What does the record list as switch fluorescence ratio for `TGTTATGTTT` ? 0.99

What does the record list as switch fluorescence ratio for `TGAGAGAAGG` ? 1.01

###

Tested on: ATP;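 further: ATP exposure 15 min at 22 °C before imaging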
Assay: switch fluorescence ratio, 500 uM ATP over buffer (Cy3 cluster intensity, sum of 5 cycles each) (fold (ratio)); higher = stronger signal-on switching upon ATP binding; sequences stand for … in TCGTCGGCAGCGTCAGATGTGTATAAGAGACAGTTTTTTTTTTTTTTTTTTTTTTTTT…TC
Details: aptamer strand: ATP DNA aptamer (quencher-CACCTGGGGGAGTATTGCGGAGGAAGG + anchor), 100 nM annealed; ATP concentration: 500 uM
switch fluorescence ratio: recorded values
Answer field: number only, no words.

Solved cases below.
sequence-text | switch fluorescence ratio
GACTCGAAAA | 1.17
ATCAGGATGC | 1.04
TATATAAAGA | 1.03
GGTATTTATT | 1.01
TGTTAGTCTA | 0.988
ATGAGAATAG | 1.01
TTGCGTTATC | 1.2
GCTAGAGAGG | 1.04

What does the record list as switch fluorescence ratio for `GGGCACTCTT` ? 1

What does the record list as switch fluorescence ratio for `GGGCGACTGT` ? 0.978

What does the record list as switch fluorescence ratio for `TTCCATGTGT` ? 1.06

What does the record list as switch fluorescence ratio for `AAATGGAGGG` ? 1.01

What does the record list as switch fluorescence ratio for `CAAATAACGT` ? 0.989

What does the record list as switch fluorescence ratio for `GACTAAATGC` ? 1.8

What does the record list as switch fluorescence ratio for `GTTATAGAGG` ? 1.03

What does the record list as switch fluorescence ratio for `GTTTTTGTAA` ? 1.02

What does the record list as switch fluorescence ratio for `GTTGGGGGAC` ? 1.09

What does the record list as switch fluorescence ratio for `CTGAGTGCGG` ? 1.02

What does the record list as switch fluorescence ratio for `CCTAATCAAC` ? 1.13

What does the record list as switch fluorescence ratio for `TTAATAAAGG` ? 1.02
